Assay: Biodistribution of radiotracers in normal mice
Assay type: in vivo, mouse
Settings: normal male mice, 2 min
Provide the recorded Biodistribution: Kidney for the entries that follow.
Give your result in % dose/g as a bare value.

Biodistribution: Kidney for O=C(O)CCc1ccc2c(n1)C[N+]13CC[N+]45CC(=O)[O][68Ga-3]14([O]C(=O)C3)([O]2)[O]c1ccc(CCC(=O)NCCCCCC(=O)NCCCC[C@H](NC(=O)N[C@@H](CCC(=O)O)C(=O)O)C(=O)O)nc1C5 (stereo partly drawn) [[^68Ga]2] ?
56.4

# input molecule: O=C(O)CCc1ccc2c(c1)C[N+]13CC[N+]45CC(=O)[O][68Ga-3]14([O]C(=O)C3)([O]2)[O]c1ccc(CCC(=O)NCC(=O)N[C@@H](Cc2ccc(OCC(=O)N[C@@H](Cc3ccccc3)C(=O)NCCCC[C@H](NC(=O)N[C@@H](CCC(=O)O)C(=O)O)C(=O)O)cc2)C(=O)O)cc1C5 (stereo partly drawn) [[^68Ga]5b] ; wanted: its Biodistribution: Kidney
50.32

For the molecule shown here, O=C(O)CC[C@H](NC(=O)N[C@@H](CCCCNC(=O)CCCCCNC(=O)CCc1ccc2c(n1)C[N+]13CC[N+]45CC(=O)[O][68Ga-3]14([O]C(=O)C3)([O]2)[O]c1ccc(CCC(=O)NCCCCCC(=O)NCCCC[C@H](NC(=O)N[C@@H](CCC(=O)O)C(=O)O)C(=O)O)nc1C5)C(=O)O)C(=O)O (stereo partly drawn) [[^68Ga]3] , give the reported Biodistribution: Kidney.
56.2

Need Biodistribution: Kidney of O=C(O)CCc1ccc2c(c1)C[N+]13CC[N+]45CC(=O)[O][68Ga-3]14([O]C(=O)C3)([O]2)[O]c1ccc(CCC(=O)NCCCCCC(=O)NCCCC[C@H](NC(=O)N[C@@H](CCC(=O)O)C(=O)O)C(=O)O)cc1C5 (stereo partly drawn) [[^68Ga]1a, reference compound] , thanks.
40.5

For O=C(O)CC[C@H](NC(=O)N[C@@H](CCCCNC(=O)CCCCCNC(=O)CCc1ccc2c(c1)C[N+]13CC[N+]45CC(=O)[O][68Ga-3]14([O]C(=O)C3)([O]2)[O]c1ccc(CCC(=O)N[C@@H](CC(=O)O)C(=O)O)cc1C5)C(=O)O)C(=O)O (stereo partly drawn) [[^68Ga]1e] , what is its reported Biodistribution: Kidney?
46.6

I am curious: what Biodistribution: Kidney value has been reported for O=C(O)CCc1ccc(O)c(CN(CCN(CC(=O)O)Cc2cc(CCC(=O)NCCCCCC(=O)NCCCC[C@H](NC(=O)N[C@@H](CCC(=O)O)C(=O)O)C(=O)O)ccc2O)CC(=O)O)n1 [[^68Ga]4a, metal not drawn] ?
60.7

----------
Test: Biodistribution of radiotracers in normal mice
Assay type: in vivo, mouse
Settings: normal male mice, 120 min
readout type: Biodistribution: Spleen (% dose/g)
Report the value in % dose/g with no unit label.

Dear colleague, I am looking for the recorded Biodistribution: Spleen of the following molecule: O=C(O)CCc1ccc2c(n1)C[N+]13CC[N+]45CC(=O)[O][68Ga-3]14([O]C(=O)C3)([O]2)[O]c1ccc(CCC(=O)NCCCCCC(=O)NCCCC[C@H](NC(=O)N[C@@H](CCC(=O)O)C(=O)O)C(=O)O)nc1C5 (stereo partly shown) [[^68Ga]2]
0.36

----------
Assay: Biodistribution of radiotracers in normal mice
Assay type: in vivo, mouse
Settings: normal male mice, 60 min
Description: Normal CD-1 male mice were injected via the tail vein with 35 μCi of [^68Ga] radiotracers (0.2 nmole of ligand). […] All organs were removed and blood was also collected. Each organ was weighed, and the tissue radioactivity was measured with an automated gamma counter (Wizard, Perkin Elmer). The % ID/g was calculated by comparison with samples of a standard dilution of the initial dose. All measurements were corrected for decay.
// assign condition met if Biodistribution: Skin falls strictly below 0.8 % dose/g, else condition not met (ties count as condition not met)

hey, is Biodistribution: Skin for O=C(O)CC[C@H](NC(=O)N[C@@H](CCCCNC(=O)CCCCCNC(=O)CCc1ccc2c(n1)C[N+]13CC[N+]45CC(=O)[O][68Ga-3]14([O]C(=O)C3)([O]2)[O]c1ccc(CCC(=O)NCCCCCC(=O)NCCCC[C@H](NC(=O)N[C@@H](CCC(=O)O)C(=O)O)C(=O)O)nc1C5)C(=O)O)C(=O)O (stereo partly shown) [[^68Ga]3] lower than 0.8 % dose/g or not?
condition not met

Problem: For the compound O=C(O)CC[C@H](NC(=O)N[C@@H](CCCCNC(=O)CCCCCNC(=O)CCc1ccc2c(c1)C[N+]13CC[N+]45CC(=O)[O][68Ga-3]14([O]C(=O)C3)([O]2)[O]c1ccc(CCC(=O)N[C@@H](CC(=O)O)C(=O)O)cc1C5)C(=O)O)C(=O)O (stereo partly shown) [[^68Ga]1e] , is Biodistribution: Skin under 0.8 % dose/g?
condition met

Below 0.8 % dose/g on Biodistribution: Skin? Entry O=C(O)CC[C@H](NC(=O)N[C@@H](CCCCNC(=O)CCCCCNC(=O)CCc1ccc2c(c1)C[N+]13CC[N+]45CC(=O)[O][68Ga-3]14([O]C(=O)C3)([O]2)[O]c1ccc(CCC(=O)NCC(=O)O)cc1C5)C(=O)O)C(=O)O (stereo partly shown) [[^68Ga]1c]
condition not met

# check: Biodistribution: Skin < 0.8 % dose/g for O=C(O)CC[C@H](NC(=O)N[C@@H](CCCCNC(=O)CCCCCNC(=O)CCc1ccc2c(c1)C[N+]13CC[N+]45CC(=O)[O][68Ga-3]14([O]C(=O)C3)([O]2)[O]c1ccc(CCC(=O)NCCNC(=O)CN2CCN(CC(=O)O)CCN(CC(=O)O)CCN(CC(=O)O)CC2)cc1C5)C(=O)O)C(=O)O (stereo partly shown) [[^68Ga]1g]
condition not met

For O=C(O)CCc1ccc(O)c(CN(CCN(CC(=O)O)Cc2cc(CCC(=O)NCCCCCC(=O)NCCCC[C@H](NC(=O)N[C@@H](CCC(=O)O)C(=O)O)C(=O)O)ccc2O)CC(=O)O)n1 [[^68Ga]4a, metal not drawn] , is the recorded Biodistribution: Skin below the cut-off of 0.8 % dose/g?
condition met

Confirm or reject: Biodistribution: Skin of O=C(O)CCc1ccc2c(c1)C[N+]13CC[N+]45CC(=O)[O][68Ga-3]14([O]C(=O)C3)([O]2)[O]c1ccc(CCC(=O)NCCCCCC(=O)NCCCC[C@H](NC(=O)N[C@@H](CCC(=O)O)C(=O)O)C(=O)O)cc1C5 (stereo partly shown) [[^68Ga]1a, reference compound] lies strictly below 0.8 % dose/g
condition met

Here's an entry: O=C(O)CCc1ccc2c(c1)C[N+]13CC[N+]45CC(=O)[O][68Ga-3]14([O]C(=O)C3)([O]2)[O]c1ccc(CCC(=O)NCC(=O)N[C@@H](Cc2ccc(OCC(=O)N[C@@H](Cc3ccccc3)C(=O)NCCCC[C@H](NC(=O)N[C@@H](CCC(=O)O)C(=O)O)C(=O)O)cc2)C(=O)O)cc1C5 (stereo partly shown) [[^68Ga]5b] . Is its Biodistribution: Skin below 0.8 % dose/g?
condition met

Given the entry O=C(O)CCc1ccc2c(n1)C[N+]13CC[N+]45CC(=O)[O][68Ga-3]14([O]C(=O)C3)([O]2)[O]c1ccc(CCC(=O)NCCCCCC(=O)NCCCC[C@H](NC(=O)N[C@@H](CCC(=O)O)C(=O)O)C(=O)O)nc1C5 (stereo partly shown) [[^68Ga]2] , would its reported Biodistribution: Skin be below 0.8 % dose/g?
condition met

Hi there! Is Biodistribution: Skin for O=C(O)CC[C@H](NC(=O)CCc1ccc2c(c1)C[N+]13CC[N+]45CC(=O)[O][68Ga-3]41([O]C(=O)C3)([O]c1ccc(CCC(=O)NCCCCCC(=O)NCCCC[C@H](NC(=O)N[C@@H](CCC(=O)O)C(=O)O)C(=O)O)cc1C5)[O]2)C(=O)O (stereo partly shown) [[^68Ga]1f] below 0.8 % dose/g, do you know?
condition not met

----------
Biological target: PSMA (Homo sapiens, UniProt Q04609)
Construct: 100 μL of freshly harvested PSMA cells; endogenous in cells; host or cells: 'PSMA cells' in the method
Sequence (Q04609 whole entry): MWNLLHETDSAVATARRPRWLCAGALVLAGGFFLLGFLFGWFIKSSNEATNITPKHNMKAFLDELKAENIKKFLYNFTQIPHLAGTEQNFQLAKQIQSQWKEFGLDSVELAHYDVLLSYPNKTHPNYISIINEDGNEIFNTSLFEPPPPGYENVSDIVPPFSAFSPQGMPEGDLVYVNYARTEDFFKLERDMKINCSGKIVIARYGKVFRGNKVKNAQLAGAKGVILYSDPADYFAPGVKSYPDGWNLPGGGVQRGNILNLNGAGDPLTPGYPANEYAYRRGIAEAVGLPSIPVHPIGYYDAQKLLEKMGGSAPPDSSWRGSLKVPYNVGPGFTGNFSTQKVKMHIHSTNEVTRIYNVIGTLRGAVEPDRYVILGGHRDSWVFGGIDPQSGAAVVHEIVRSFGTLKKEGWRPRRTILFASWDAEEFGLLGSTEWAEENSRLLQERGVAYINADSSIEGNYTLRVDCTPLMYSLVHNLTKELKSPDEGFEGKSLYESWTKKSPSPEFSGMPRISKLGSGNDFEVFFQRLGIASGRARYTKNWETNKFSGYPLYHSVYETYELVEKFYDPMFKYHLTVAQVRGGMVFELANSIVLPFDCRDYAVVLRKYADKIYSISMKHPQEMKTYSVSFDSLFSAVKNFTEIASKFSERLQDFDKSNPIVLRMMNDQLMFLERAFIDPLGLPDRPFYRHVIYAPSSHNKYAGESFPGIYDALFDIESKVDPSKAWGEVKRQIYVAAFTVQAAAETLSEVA
Experiment: In vitro binding signals of 68Ga labeled ligands in LNCaP tumor homogenates
Details: Ga-68 radiolabeled ligands, with 1a (PSMA11) 10 μM
Friendly reminder: Nonspecific binding (NSB) below 2 is true (1), at or above is false (0).

Lab note: Nonspecific binding (NSB) threshold 2. Does this compound come in strictly under it? O=C(O)CC[C@H](NC(=O)CCc1ccc(O)c(CN(CCN(CC(=O)O)Cc2cc(CCC(=O)NCCCCCC(=O)NCCCC[C@H](NC(=O)N[C@@H](CCC(=O)O)C(=O)O)C(=O)O)ccc2O)CC(=O)O)c1)C(=O)O
true (1)

Lab log: compare recorded Nonspecific binding (NSB) with 2; is it strictly lower for O=C(O)CC[C@H](NC(=O)N[C@@H](CCCCNC(=O)CCCCCNC(=O)CCc1ccc(O)c(CN(CCN(CC(=O)O)Cc2cc(CCC(=O)NCCNC(=O)CN3CCN(CC(=O)O)CCN(CC(=O)O)CCN(CC(=O)O)CC3)ccc2O)CC(=O)O)c1)C(=O)O)C(=O)O ?
true (1)

Strictly below 2: is that where Nonspecific binding (NSB) of O=C(O)CC[C@H](NC(=O)N[C@@H](CCCCNC(=O)[C@H](Cc1ccccc1)NC(=O)COc1ccc(C[C@H](NC(=O)CNC(=O)CN2CCN(CC(=O)O)CCN(CC(=O)O)CCN(CC(=O)O)CC2)C(=O)O)cc1)C(=O)O)C(=O)O sits?
true (1)

Bench note: check whether O=C(O)CCc1ccc(O)c(CN(CCN(CC(=O)O)Cc2nc(CCC(=O)NCCCCCC(=O)NCCCC[C@H](NC(=O)N[C@@H](CCC(=O)O)C(=O)O)C(=O)O)ccc2O)CC(=O)O)n1 shows Nonspecific binding (NSB) below 2
false (0)

Bench note: check whether O=C(O)CC[C@H](NC(=O)N[C@@H](CCCCNC(=O)CCCCCNC(=O)CCc1ccc(O)c(CN(CCN(CC(=O)O)Cc2cc(CCC(=O)NCC(=O)O)ccc2O)CC(=O)O)c1)C(=O)O)C(=O)O shows Nonspecific binding (NSB) below 2
true (1)

Strictly below 2: is that where Nonspecific binding (NSB) of O=C(O)CC[C@H](NC(=O)N[C@@H](CCCCNC(=O)CCCCCNC(=O)CCc1ccc(O)c(CN(CCN(CC(=O)O)Cc2nc(CCC(=O)NCCCCCC(=O)NCCCC[C@H](NC(=O)N[C@@H](CCC(=O)O)C(=O)O)C(=O)O)ccc2O)CC(=O)O)n1)C(=O)O)C(=O)O sits?
false (0)

These entries and their values trace back to patent US10688200B2.
